test system: SN12C; assay: NCI tumour cell line growth inhibition, 48 h
Active and inactive are the calls of the source. Cut-off read from the data, not from the text of the source: active = GI50 up to about 1.1 µM and inactive = higher.
# maps each entry to its GI50

// CC1(C)C(c2ccccc2)=[N+]([O-])C(C)(C)N1O : GI50 value = > 10 µM (inactive)

// O=C1CC(=O)NC(NN2C(=O)CSC2c2ccc(Cl)cc2)=N1 (configuration not stated) : GI50 value = 18.4 µM (inactive)

// CN(C)C(=C1c2cc([N+](=O)[O-])ccc2-c2ccc([N+](=O)[O-])cc21)N(C)C : GI50 value = > 100 µM (inactive)

// C/C=C1\CNC1C(=O)O (configuration not stated) : GI50 value = > 100 µM (inactive)

// Cc1nc(=O)n2c(C)n[nH]c2c1C(=O)Nc1cc(Cl)cc(Cl)c1 : GI50 value = 15.9 µM (inactive)

// CCc1nc(N)nc(N)c1-c1ccc(N2CCOCC2)c(N=[N+]=[N-])c1 : GI50 value = > 80.5 µM (inactive)

// COc1ccccc1NC(=O)C1=C(C)NC(C)=C(C(=O)Nc2ccccc2OC)C1/C=C/c1ccccc1 : GI50 value = > 100 µM (inactive)

// COc1cc(C2c3cc4c(cc3[C@@H](N(C)C)[C@H]3COC(=O)C23)OCO4)cc(OC)c1O (some centres not stated) : GI50 value = 51.4 µM (inactive)

// COP(=O)(O)/C=C/C(NC(=O)C(Cl)(Cl)Cl)c1ccccc1 (configuration not stated) : GI50 value = > 100 µM (inactive)

// CSc1ccc(C(=O)C(=O)c2ccc(SC)s2)s1 : GI50 value = > 10 µM (inactive)

// NC(=O)c1ccc([N+](=O)[O-])cc1 : GI50 value = > 100 µM (inactive)

// NCc1ccc(O)c(O)c1 : GI50 value = > 100 µM (inactive)

// O=c1n(CCCN2CCOCC2)nc2n1-c1ccc3ccccc3c1SC2 : GI50 value = 71.9 µM (inactive)

* * *

# maps each entry to its GI50
system: NCI-H226; test: NCI tumour cell line growth inhibition, 48 h
The source made the active and inactive calls. No stated cut-off is given here; in the data, active = GI50 up to about 1.1 µM and inactive = higher.

// Cc1cccc2c1[C@]13OC(C)[C@]4(C)CC5OC(=O)[C@@]1(C)[C@@H]5[C@]34C(=O)O2 (stereo partly specified) : GI50 value = > 100 µM (inactive)

// CCOC(=S)SCC(=O)O : GI50 value = > 100 µM (inactive)

// O=C(O)c1cc(=O)c2cc(C(=O)c3cccs3)c(Cl)c(Cl)c2o1 : GI50 value = > 100 µM (inactive)

// Cc1ccc(C(=O)Nc2ccc(S(=O)(=O)O)c3cc(S(=O)(=O)O)cc(S(=O)(=O)O)c23)cc1N : GI50 value = > 100 µM (inactive)

// CNC/C(Cl)=N/S(=O)(=O)c1ccc(C)cc1 : GI50 value = 19.5 µM (inactive)

// CCC[C@@H]1C(=O)N=C(N)N1C(=O)OCc1ccccc1 : GI50 value = > 100 µM (inactive)

* * *

# maps each entry to its GI50
test system: CCRF-CEM; test: NCI tumour cell line growth inhibition, 48 h
Activity calls are given as the source filed them. No stated cut-off is given here; in the data, active = GI50 up to about 1.1 µM and inactive = higher.

Study these solved cases before continuing.
// O=C1CSC(c2ccccc2[N+](=O)[O-])N1c1ccc(-n2c(-c3ccccc3)nc3ccccc3c2=O)cc1 (configuration not stated) : GI50 value = 41.1 µM (inactive)

// CC1C2CC(CC23OCC(CCl)O3)C1(C)C (configuration not stated) : GI50 value = > 100 µM (inactive)

// COc1ccc(CCc2cc(OC)c(O)c(OC)c2)cc1 : GI50 value = 77.1 µM (inactive)

// N#CC1([N+](=O)[O-])C=C1c1ccccc1 (configuration not stated) : GI50 value = 21.1 µM (inactive)

// O=C(Cc1ccccc1)N/N=C/c1ccccc1O : GI50 value = 4.94 µM (inactive)

// Oc1ccc(Nc2nc(Cl)c3nc[nH]c3n2)cc1 : GI50 value = 37.9 µM (inactive)

// CC(C)=CCC[C@@H](C)C1=C(O)C(=O)C(C)=C(N[C@H](C)c2ccccc2)C1=O : GI50 value = 0.923 µM (active)

// CN(CCCNC(=O)c1nn(-c2ccc(Cl)cc2Cl)c2c1ccc1ccccc12)CCCNC(=O)c1nn(-c2ccc(Cl)cc2Cl)c2c1ccc1ccccc12 : GI50 value = 1.92 µM (inactive)

// COc1c(C)c(C/C=C(\C)CCCCO)c(OC)c2ccccc12 : GI50 value = 28.8 µM (inactive)

// CN(C)c1ccc(/C=C2\C[C@H]3[C@@H]4CCc5cc(OCCN6CCCC6)ccc5[C@H]4CC[C@]3(C)[C@H]2O)cc1 : GI50 value = 2.46 µM (inactive)

More entries:
// CCOC(=O)C(NC(=O)CC(C)C)(N1CCN(c2cc3c(cc2F)c(=O)c(C(=O)O)cn3C2CC2)CC1)C(F)(F)F (configuration not stated) : GI50 value = 3.32 µM (inactive)

// Cc1cccc2c1[C@]13OC(C)[C@]4(C)CC5OC(=O)[C@@]1(C)[C@@H]5[C@]34C(=O)O2 (some centres not stated) : GI50 value = > 100 µM (inactive)

* * *

# maps each entry to its GI50
system: HT-29; test: NCI tumour cell line growth inhibition, 48 h
Activity calls are given as the source filed them. No stated cut-off is given here; in the data, active = GI50 up to about 1.1 µM and inactive = higher.

// Nc1ccccc1SC(C[N+](=O)[O-])c1ccc2c(c1)OCO2 (stereo unspecified) : GI50 value = 1.89 µM (inactive)

// CSC[C@H](NC(=O)COc1cccc2cnccc12)C(=O)NC(Cc1ccccc1)C(O)C(=O)N1CSC[C@H]1C(=O)NC(C)(C)C (stereo partly specified) : GI50 value = 33.7 µM (inactive)

// O=c1c2ccccc2nc2[nH][nH]c(=S)n12 : GI50 value = > 100 µM (inactive)

More entries:
// Cc1ccc2nc3c(C)cc(=O)cc-3sc2c1 : GI50 value = 36.2 µM (inactive)

// FC(F)(F)c1cccnc1Sc1nc2ccccc2s1 : GI50 value = > 100 µM (inactive)

// C=C[C@@H]1C(CO)=CCC2[C@H]1CCC1C(C)(C)C(=O)CC[C@]21C (stereo partly specified) : GI50 value = > 100 µM (inactive)

* * *

tested on: MDA-N; assay: NCI tumour cell line growth inhibition, 48 h
Calls of active or inactive are those of the source. No stated cut-off is given here; in the data, active = GI50 up to about 1.1 µM and inactive = higher.
Respond using exactly one of the listed classes: y = active, n = inactive

Example entries and their recorded answers appear below.
Please state the recorded outcome for this compound: CC(C)Oc1cccc(N2C(CCc3c[nH]c4ccc(Br)cc34)=NS(=O)(=O)c3cnccc32)c1
n

Please state the recorded outcome for this compound: Cc1cc(O)c2c(c1)C[C@@H](O)C1=C2C(=O)c2c(O)ccc(OC3CC(O)C(OC4CC(OC5CCC(OC6CC(O)C(OC7CC(OC8CCC(O)C(C)O8)C(O)C(C)O7)C(C)O6)C(C)O5)C(O)C(C)O4)C(C)O3)c2C1=O (stereo not given in full)
y

Please state the recorded outcome for this compound: Cc1csc(-n2nc(C)cc2C)n1
n

More entries:
Please state the recorded outcome for this compound: Cn1c2c(c3ccccc31)CC(=S)N1CCCC(CC2O)C1 (stereo not given)
n

Please state the recorded outcome for this compound: NCCCCc1cc(O)c2c(c1O)C(=O)c1ccccc1C2=O
n

* * *

system: MDA-N; assay: NCI tumour cell line growth inhibition, 48 h
Active and inactive are the calls of the source. Cut-off read from the data, not from the text of the source: active = GI50 up to about 1.1 µM and inactive = higher.
Respond using exactly one of the listed classes: 1 (yes) (active), 0 (no) (inactive)

Example entries and their recorded answers appear below.
Please state the recorded outcome for this compound: c1ccc(/C(=N/Nc2ccncn2)c2ccccn2)cc1
0 (no)

Please state the recorded outcome for this compound: COc1c(C)c(C/C=C(\C)CCCCO)c(OC)c2ccccc12
0 (no)

Please state the recorded outcome for this compound: COP(=O)(O)/C=C/C(NC(=O)C(Cl)(Cl)Cl)c1ccccc1 (configuration not stated)
0 (no)

Please state the recorded outcome for this compound: O=C1CC(c2ccc[nH]2)=NN1c1ccccc1
0 (no)

Please state the recorded outcome for this compound: COc1cc2c(c(OC)c1OC)-c1cccc(=O)cc1C(NC(C)=O)CC2 (configuration not stated)
1 (yes)

Please state the recorded outcome for this compound: CC(C)(CN1CCCCC1)C(/C=C/c1ccccc1)=N\NC(=O)N/N=C(/C=C/c1ccccc1)C(C)(C)CN1CCCCC1
0 (no)

More entries:
Please state the recorded outcome for this compound: COCOc1ccc(C2(O)Oc3cc(OCOC)ccc3C2C)c(O)c1 (configuration not stated)
0 (no)

* * *

# maps each entry to its GI50
test system: SK-MEL-2; test: NCI tumour cell line growth inhibition, 48 h
Active and inactive are the calls of the source. No stated cut-off is given here; in the data, active = GI50 up to about 1.1 µM and inactive = higher.

// CCc1nc(N)nc(N)c1-c1ccc(N2CCOCC2)c(N=[N+]=[N-])c1 : GI50 value = > 100 µM (inactive)

// CC(=O)OCC1OC(n2c(C)cc(C)c(C#N)c2=S)C(OC(C)=O)C(OC(C)=O)C1OC(C)=O (stereo not given) : GI50 value = > 100 µM (inactive)

// COC(=O)c1c(O)ccc2c1c1c(n2CCc2ccccc2)C(=O)c2ccccc2C1=O : GI50 value = 15.1 µM (inactive)

// CC(C)c1cccc(C(C)C)c1NC(=O)C(=O)Cc1nc2ccc([N+](=O)[O-])cc2nc1O : GI50 value = 61 µM (inactive)

More entries:
// CC(NC1=NCCO1)c1ccsc1 (stereo not given) : GI50 value = 21.9 µM (inactive)

// CCN(CC)CCNc1ccc2nc(C)n3c4ccc(OC)cc4c(=O)c1c23 : GI50 value = 12.4 µM (inactive)

// Cc1ccc(/C=C2\CCCC(CN(C)C)C2=O)cc1 (stereo not given) : GI50 value = 4.76 µM (inactive)

// Fc1cc(C2=Nn3c(CNc4ccc(Cl)cc4)nnc3S/C2=C\c2ccc(-c3ccc(Cl)cc3)o2)c(Cl)cc1Cl : GI50 value = 22.6 µM (inactive)

// Cc1ccc(NC(=O)CC2SC(Nc3cccc(Cl)c3C)=NC2=O)cc1 (stereo not given) : GI50 value = 44.6 µM (inactive)

// c1ccc(C2=NN(c3ccccc3)C3(S2)SC(c2ccccc2)(c2ccccc2)c2ccccc23)cc1 (stereo not given) : GI50 value = > 100 µM (inactive)
